Sequence of the target: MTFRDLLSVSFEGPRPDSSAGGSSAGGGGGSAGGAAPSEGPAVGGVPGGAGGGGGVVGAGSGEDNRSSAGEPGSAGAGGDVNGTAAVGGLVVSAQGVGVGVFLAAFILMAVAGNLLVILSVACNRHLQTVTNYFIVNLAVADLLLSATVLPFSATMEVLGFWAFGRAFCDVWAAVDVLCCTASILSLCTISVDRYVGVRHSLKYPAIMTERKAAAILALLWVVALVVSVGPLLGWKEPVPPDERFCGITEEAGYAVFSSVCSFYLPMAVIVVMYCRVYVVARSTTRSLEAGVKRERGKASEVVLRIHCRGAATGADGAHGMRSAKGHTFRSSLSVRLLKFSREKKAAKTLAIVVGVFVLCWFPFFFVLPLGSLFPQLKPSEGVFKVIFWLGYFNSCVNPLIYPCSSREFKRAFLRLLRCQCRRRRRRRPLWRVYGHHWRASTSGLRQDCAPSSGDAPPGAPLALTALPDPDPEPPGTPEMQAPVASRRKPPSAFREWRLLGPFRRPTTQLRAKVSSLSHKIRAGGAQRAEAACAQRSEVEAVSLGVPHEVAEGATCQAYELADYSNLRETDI
pKi: −log10 of the molar value.
Multi-source literature compilation: pKi on the protein given by its sequence.
Measured Property: pKi

> print(dat)
                                   compound  qualifying.sign  recorded.value
1  COc1cccc(OC)c1OCCNC[C@@H]1CO[C@@H](c2ccccc2)CO1 (relative stereo)                <            6.00
2  O=S1(=O)CC(NCCOc2cc(F)ccc2Cl)c2ccccc21 (stereo not drawn)                <            7.03
3  CC(CN1CCN(c2cc(F)c(F)cc2F)CC1)N1C(=O)CC2(CCCC2)CC1=O (single isomer, unassigned)                =            8.89
4  COc1ccccc1OCCNCC1(c2ccccc2)COCCO1 (stereo not drawn)                =            7.16
5                      C1CCCC(NC2=NCCO2)CC1                =            5.42
6  COc1c(C)c(C)c(O)c(C)c1CN(C)CCOc1cc(C)c(O)cc1C(C)C                =            8.90
7           CC(C)(C)Cn1cc(Cl)cc(C(N)=O)c1=N                =            6.09
8  COc1ccccc1N1CCN(CCn2c(=O)[nH]c3c(sc4ccc(NC(=O)CCCC(=O)NCCc5ccccc5)cc43)c2=O)CC1                =            9.00

====

pKi: −log10 of the molar value.
Multi-source literature compilation: pKi on Alpha-1D adrenergic receptor (Homo sapiens, UniProt P25100).
Where pKi equals or exceeds 7, the correct label is 1 (yes); where it does not, the label is 0 (no).

> print(dat)
                                    molecule  answer.label
 1  CO/C(O)=C1\C(C)=NC(C)=C(C(=O)NCCCCN2CCC(c3ccccc3)(c3ccccc3)CC2)C1c1ccc([N+](=O)[O-])cc1 (stereo not given)        0 (no)
 2  CN(CCOc1ccccc1Cl)CCN1C(=O)CC2(CCCC2)CC1=O       1 (yes)
 3  COC(=O)C1=C(C)NC(=O)N(C(=O)NCCCN2CCC(OC)(c3ccccc3)CC2)C1c1ccc(F)c(F)c1 (stereo not given)        0 (no)
 4  CC(C)Oc1ccccc1N1CCN(Cc2cc(CN3CCCC3=O)cs2)CC1       1 (yes)
 5  Cc1ccc(C(C(=O)NCCCN2CCC(C#N)(c3ccccn3)CC2)c2ccc(C)cc2)cc1        0 (no)
 6  COc1cc2nc(N3CCN(C(=O)CC4CCSS4)CC3)nc(N)c2cc1OC (stereo not given)       1 (yes)
 7  COCC1=C(C(=O)OC)[C@H](c2ccc(F)c(F)c2)N(C(=O)N[C@H]2CC[C@@H](N3CCC(C#N)(c4ccccc4)CC3)C2)C(=O)N1        0 (no)
 8  COc1ccc(COc2ccccc2OCCNCCOc2c(OC)cccc2OC)cc1       1 (yes)
 9              CS(=O)(=O)c1ccccc1NCC1=NCCN1        0 (no)
10  COc1ccc(Cl)cc1N1CCN(CCn2c(=O)[nH]c3c(sc4ccccc43)c2=O)CC1       1 (yes)
11  COc1cc2nc(N3CCN(C(=O)c4ccccc4)[C@H]4CCCC[C@H]43)nc(N)c2cc1OC       1 (yes)
12   COc1cccc2c(CCCN3CCN(c4ccccn4)CC3)cccc12       1 (yes)
13  COc1ccccc1OCCNCC1CCOC(c2ccccc2)(c2ccccc2)O1 (stereo not given)       1 (yes)
14  COc1ccccc1N1CCN(CCn2c(=O)[nH]c3c(sc4ccc(NC(=O)CCCN(C)C)cc43)c2=O)CC1       1 (yes)
15  COc1ccccc1N1CCN(C[C@H]2CO[C@@](CN3C(=O)CCC3=O)(c3ccccc3)O2)CC1 (relative stereo)       1 (yes)
16  CC(C)Oc1ccccc1N1CCN(CC(O)CNC(=O)c2ccc3c(c2)C(=O)N(c2cccc(Cl)c2)C3=O)CC1 (stereo not given)       1 (yes)
17  CC(C)Oc1ccccc1N1CCN(CC(O)CNC(=O)c2ccc3c(c2)C(=O)N(c2ccc(O)cc2)C3=O)CC1 (stereo not given)       1 (yes)
18                      CSc1ccccc1NCC1=NCCN1       1 (yes)
19  CC(C)Oc1ccccc1N1CCN(CCCNC(=O)c2ccc3c(c2)C(=O)N(c2ccc(O)cc2)C3=O)CC1       1 (yes)
20  O=C1CC2(CCC2)CC(=O)N1CCN1CCN(c2cc(Cl)ccc2Cl)CC1       1 (yes)
21  O=C1CC2(CCCC2)CCN1CCN1CCN(c2ccccc2Cl)CC1       1 (yes)
22  COc1ccccc1OCCNC[C@H]1CO[C@H](C(c2ccccc2)c2ccccc2)O1 (relative stereo)       1 (yes)
23         Cc1ccc(S(C)(=O)=O)c(NCC2=NCCN2)c1        0 (no)
24  CC(C)Oc1ccccc1N1CCN(C/C=C/C(=O)CN2CCCCC2=O)CC1        0 (no)
25  COc1ccccc1N1CCN(CCn2c(=O)[nH]c3c(sc4ccc(NC(=O)c5ccccc5)cc43)c2=O)CC1       1 (yes)
26  COc1ccccc1N1CCN(CCCn2c(=O)[nH]c3scc(-c4ccccc4)c3c2=O)CC1       1 (yes)
